Cited source for all entries: ChEMBL document CHEMBL1629439

# System: Staphylococcus aureus
# measurement_description: Antimicrobial activity against methicillin-resistant Staphylococcus aureus isolate NTUH4722 after 18 to 24 hrs by alamar blue assay
# Type: functional

{"molecule": "O=C(Nc1nnc(-c2ccccc2Cl)o1)c1cccc(C(F)(F)F)c1", "tested_system": "Staphylococcus aureus", "qualifier_symbol": "=", "MIC, µg/mL": 2}
{"molecule": "O=C(Nc1ccc(Oc2ccc(Cl)c3cccnc23)c(Cl)c1)c1cc(Br)cc(Br)c1O", "tested_system": "Staphylococcus aureus", "qualifier_symbol": "≤", "MIC, µg/mL": 0.03}
{"molecule": "O=C(Nc1ccc(Cl)cc1)c1cc(Br)cc(Br)c1O", "tested_system": "Staphylococcus aureus", "qualifier_symbol": "=", "MIC, µg/mL": 1}
{"molecule": "O=C1c2cc([N+](=O)[O-])cc3cc([N+](=O)[O-])cc(c23)C(=O)N1c1ccc(O)cc1", "tested_system": "Staphylococcus aureus", "qualifier_symbol": "=", "MIC, µg/mL": 2.5}
{"molecule": "O=C(Nc1ccc(Cl)cc1)c1cc(Br)ccc1NS(=O)(=O)c1ccc(Cl)cc1", "tested_system": "Staphylococcus aureus", "qualifier_symbol": "=", "MIC, µg/mL": 0.25}
{"molecule": "Cc1ccc(C(C)C)cc1Oc1ccc(Cl)cc1NC(=O)c1cc(Cl)ccc1O", "tested_system": "Staphylococcus aureus", "qualifier_symbol": "≤", "MIC, µg/mL": 0.03}
{"molecule": "Cc1ccc(C(=O)c2cc(Cl)cc(NC(=O)c3cc(Br)cc(Br)c3O)c2Cl)cc1", "tested_system": "Staphylococcus aureus", "qualifier_symbol": ">", "MIC, µg/mL": 4}
{"molecule": "Cc1ccccc1NS(=O)(=O)c1ccc2c(c1)NC(=O)C(C)S2 (centres undefined)", "tested_system": "Staphylococcus aureus", "qualifier_symbol": "=", "MIC, µg/mL": 1.2}
{"molecule": "CSc1nc2ccc(NC(=O)c3ccc([N+](=O)[O-])o3)cc2s1", "tested_system": "Staphylococcus aureus", "qualifier_symbol": "=", "MIC, µg/mL": 1}
{"molecule": "Cc1c(CC(=O)N2CCC[C@H]2C(=O)O)c(=O)oc2c(C)c3occ(-c4ccc(Cl)cc4)c3cc12", "tested_system": "Staphylococcus aureus", "qualifier_symbol": "=", "MIC, µg/mL": 0.3}
{"molecule": "Cc1c(CC(=O)N2CCC[C@H]2C(=O)O)c(=O)oc2c(C)c3occ(-c4ccc(F)cc4)c3cc12", "tested_system": "Staphylococcus aureus", "qualifier_symbol": "=", "MIC, µg/mL": 0.6}
{"molecule": "CCOC(=O)c1c(NC(=O)c2ccc([N+](=O)[O-])o2)sc2c1CCN(C(C)=O)C2", "tested_system": "Staphylococcus aureus", "qualifier_symbol": "=", "MIC, µg/mL": 1}
{"molecule": "CCc1ccccc1NS(=O)(=O)c1ccc2c(c1)NCC(C)C(=O)S2 (centres undefined)", "tested_system": "Staphylococcus aureus", "qualifier_symbol": "=", "MIC, µg/mL": 4}
{"molecule": "Cc1ccc(NS(=O)(=O)c2ccc3c(c2)NCC(C)C(=O)S3)c(C)c1 (centres undefined)", "tested_system": "Staphylococcus aureus", "qualifier_symbol": "=", "MIC, µg/mL": 16}
{"molecule": "Cc1ccc(C(C)C)c(Oc2ccc(Cl)cc2NC(=O)c2cc(Cl)cc(Cl)c2O)c1", "tested_system": "Staphylococcus aureus", "qualifier_symbol": "≤", "MIC, µg/mL": 0.03}
{"molecule": "O=C1c2cccc3cccc(c23)C(=O)N1CCN1CCN(CCc2ccccc2)CC1", "tested_system": "Staphylococcus aureus", "qualifier_symbol": "=", "MIC, µg/mL": 16}
{"molecule": "O=C(Nc1nnc(-c2ccc(F)cc2)o1)c1cccc(Cl)c1", "tested_system": "Staphylococcus aureus", "qualifier_symbol": "=", "MIC, µg/mL": 1}
{"molecule": "Cc1ccc(C)c(NS(=O)(=O)c2ccc3c(c2)NCC(C)C(=O)S3)c1 (centres undefined)", "tested_system": "Staphylococcus aureus", "qualifier_symbol": "=", "MIC, µg/mL": 32}
{"molecule": "CCc1ccccc1NS(=O)(=O)c1ccc2c(c1)NC(=O)C(C)S2 (centres undefined)", "tested_system": "Staphylococcus aureus", "qualifier_symbol": "=", "MIC, µg/mL": 32}
{"molecule": "CCc1ccccc1NS(=O)(=O)c1ccc2c(c1)NC(C)CC(=O)S2 (centres undefined)", "tested_system": "Staphylococcus aureus", "qualifier_symbol": "=", "MIC, µg/mL": 4}
{"molecule": "O=C(Nc1ccc(Sc2nc3ccccc3s2)c(Cl)c1)c1cc(Cl)cc(Cl)c1O", "tested_system": "Staphylococcus aureus", "qualifier_symbol": "≤", "MIC, µg/mL": 0.03}
{"molecule": "O=C(c1ccc(NC(=O)c2cc(Br)cc(Br)c2O)c(Cl)c1)c1cccs1", "tested_system": "Staphylococcus aureus", "qualifier_symbol": "≤", "MIC, µg/mL": 0.03}
{"molecule": "Cc1c(CC(=O)N[C@@H](CCCNC(N)=O)C(=O)O)c(=O)oc2c(C)c3occ(-c4ccc(Cl)cc4)c3cc12", "tested_system": "Staphylococcus aureus", "qualifier_symbol": "=", "MIC, µg/mL": 2.5}
{"molecule": "O=C(Nc1ccc(-c2nc3ccccc3[nH]2)cc1)c1ccc([N+](=O)[O-])o1", "tested_system": "Staphylococcus aureus", "qualifier_symbol": "=", "MIC, µg/mL": 8}
{"molecule": "O=C(c1ccc(Cl)cc1)c1cc(NC(=O)c2cc(Cl)cc(Br)c2O)c(Cl)cc1Cl", "tested_system": "Staphylococcus aureus", "qualifier_symbol": "=", "MIC, µg/mL": 0.25}
{"molecule": "O=C(c1ccccc1)c1cc(NC(=O)c2cc(Br)cc(Br)c2O)ccc1Cl", "tested_system": "Staphylococcus aureus", "qualifier_symbol": "=", "MIC, µg/mL": 2}
{"molecule": "O=C(Nc1ccc(Oc2ccc3ccccc3c2Cl)c(Cl)c1)c1cc(Br)cc(Br)c1O", "tested_system": "Staphylococcus aureus", "qualifier_symbol": "≤", "MIC, µg/mL": 0.03}
{"molecule": "COC(=O)c1c(NC(=O)c2ccc([N+](=O)[O-])o2)sc2c1CC(C)(C)NC2(C)C", "tested_system": "Staphylococcus aureus", "qualifier_symbol": "=", "MIC, µg/mL": 4}
{"molecule": "CCN(CC)c1cc(C)c2cc(NC(=O)c3ccc([N+](=O)[O-])o3)ccc2n1", "tested_system": "Staphylococcus aureus", "qualifier_symbol": ">", "MIC, µg/mL": 4}
{"molecule": "O=C(Nc1ccc(Oc2ccc(Br)c3ccccc23)c(Cl)c1)c1cc(Br)cc(Br)c1O", "tested_system": "Staphylococcus aureus", "qualifier_symbol": "≤", "MIC, µg/mL": 0.03}
{"molecule": "O=C(Nc1nnc(-c2ccc(F)cc2)o1)c1cccc(C(F)(F)F)c1", "tested_system": "Staphylococcus aureus", "qualifier_symbol": "=", "MIC, µg/mL": 1}
{"molecule": "Cc1ccc(-c2coc3c(C)c4oc(=O)c(CCC(=O)O)c(C)c4cc23)cc1", "tested_system": "Staphylococcus aureus", "qualifier_symbol": "=", "MIC, µg/mL": 1}
{"molecule": "O=C(Nc1ccc(Oc2cc3ccccc3cc2Cl)c(Cl)c1)c1cc(Br)cc(Br)c1O", "tested_system": "Staphylococcus aureus", "qualifier_symbol": "≤", "MIC, µg/mL": 0.03}
{"molecule": "O=C(Nc1nnc(-c2ccc(F)cc2)o1)c1ccc(Cl)s1", "tested_system": "Staphylococcus aureus", "qualifier_symbol": "=", "MIC, µg/mL": 1.2}
{"molecule": "Cc1ccc(C(C)C)cc1Oc1ccc(Cl)cc1NC(=O)c1cc(Cl)cc(Br)c1O", "tested_system": "Staphylococcus aureus", "qualifier_symbol": "≤", "MIC, µg/mL": 0.03}
{"molecule": "O=C(Nc1ccc(Oc2cc3ccccc3cc2Cl)c(Cl)c1)c1cc(Cl)cc(I)c1O", "tested_system": "Staphylococcus aureus", "qualifier_symbol": "≤", "MIC, µg/mL": 0.03}
{"molecule": "Cc1c(CC(=O)NCC(=O)O)c(=O)oc2c(C)c3occ(-c4ccc(Cl)cc4)c3cc12", "tested_system": "Staphylococcus aureus", "qualifier_symbol": "=", "MIC, µg/mL": 1.25}
{"molecule": "O=C(Nc1cc(Cl)ccc1Oc1ccc(Cl)c2ccccc12)c1cc(I)cc(I)c1O", "tested_system": "Staphylococcus aureus", "qualifier_symbol": "≤", "MIC, µg/mL": 0.03}
{"molecule": "CC[C@@H](C)[C@H](NC(=O)Cc1c(C)c2cc3c(-c4ccc(Cl)cc4)coc3c(C)c2oc1=O)C(=O)O", "tested_system": "Staphylococcus aureus", "qualifier_symbol": "=", "MIC, µg/mL": 2.5}
